These data points were gathered from paper PMC10983004.

Target: KDM2A (Homo sapiens, UniProt Q9Y2K7)
Sequence (Q9Y2K7 1-1162): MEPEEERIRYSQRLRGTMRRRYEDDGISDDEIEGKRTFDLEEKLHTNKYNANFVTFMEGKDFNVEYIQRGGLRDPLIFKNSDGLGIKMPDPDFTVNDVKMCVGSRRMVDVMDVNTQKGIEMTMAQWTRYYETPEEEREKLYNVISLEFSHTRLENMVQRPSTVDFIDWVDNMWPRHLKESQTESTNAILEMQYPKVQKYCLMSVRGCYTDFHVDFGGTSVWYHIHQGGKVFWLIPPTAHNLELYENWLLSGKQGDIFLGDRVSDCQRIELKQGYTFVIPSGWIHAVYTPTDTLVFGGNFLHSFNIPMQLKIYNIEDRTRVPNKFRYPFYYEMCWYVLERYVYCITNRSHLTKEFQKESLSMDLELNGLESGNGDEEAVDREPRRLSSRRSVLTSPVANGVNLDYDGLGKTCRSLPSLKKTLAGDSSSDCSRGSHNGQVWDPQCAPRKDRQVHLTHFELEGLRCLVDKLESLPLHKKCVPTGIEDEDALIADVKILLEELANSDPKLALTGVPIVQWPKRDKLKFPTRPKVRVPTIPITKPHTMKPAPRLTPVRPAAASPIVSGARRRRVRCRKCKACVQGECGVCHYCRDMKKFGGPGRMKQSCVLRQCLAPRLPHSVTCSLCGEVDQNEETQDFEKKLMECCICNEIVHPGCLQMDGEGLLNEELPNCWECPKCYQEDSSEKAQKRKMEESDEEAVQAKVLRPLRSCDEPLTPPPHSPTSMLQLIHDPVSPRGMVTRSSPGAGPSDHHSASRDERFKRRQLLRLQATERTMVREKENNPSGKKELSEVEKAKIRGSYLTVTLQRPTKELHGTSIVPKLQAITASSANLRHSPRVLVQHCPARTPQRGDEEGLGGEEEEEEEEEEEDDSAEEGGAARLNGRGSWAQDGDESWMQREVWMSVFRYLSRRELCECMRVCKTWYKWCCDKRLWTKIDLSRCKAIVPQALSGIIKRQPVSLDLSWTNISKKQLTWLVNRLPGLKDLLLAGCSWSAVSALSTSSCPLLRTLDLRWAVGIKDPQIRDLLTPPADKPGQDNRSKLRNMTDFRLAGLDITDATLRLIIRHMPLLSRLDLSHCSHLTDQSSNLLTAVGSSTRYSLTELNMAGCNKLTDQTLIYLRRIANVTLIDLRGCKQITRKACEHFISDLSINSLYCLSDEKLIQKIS
MEASURE: Ki (µM)
All answers are understood in µM, so give the number only.

## Input Field request: Ki | item: O=C(O)CC[C@@H](O)C(=O)O [R-2HG, (2R)-hydroxyglutarate]
## Output 74
